B1: tRNA (parent)
chain: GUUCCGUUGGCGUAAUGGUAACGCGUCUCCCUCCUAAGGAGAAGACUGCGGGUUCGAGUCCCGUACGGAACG

Variants of: B1
Assay: yeast fitness, log relative to wild type (ln ratio); higher = fitter; tRNA-Arg(CCU), competitive growth, 37 C, 1 M NaCl
Readout label: yeast fitness (ln)

// solved cases for yeast fitness (ln) follow
// query yeast fitness (ln) value for entry U2G A70U -0.00577

Follow-up entry: U2G G6U A43C C46U C66U A70U -0.263

Follow-up entry: U2G G6U C27U A43C C46U C66A C71U -0.363

Follow-up entry: U2G C27U A43C C46U -0.0622

Follow-up entry: G1A U2C G6U C27U C66U A69G A70G C71U -0.251

Next:
// query yeast fitness (ln) value for entry G1A U2G G6U C27U A43C C46U A69G A70G C71U -0.446

Follow-up entry: U2G C27U A69G -0.0592

Follow-up entry: G1A U2G G6U A43C C46U C66A A70U C71U -0.0885
